system: CMK; experiment: CellTox Green cytotoxicity fluorescence relative to DMSO vehicle (fold of vehicle RFU); higher = more cell death (loss of membrane integrity), active = 2 or more; conditions: 1 µM; 48 h
One label from this list, please: active, inactive

>>> qualitative_label("CCCC[C@@H](C=O)NC(=O)[C@H](CC(C)C)NC(=O)OCc1ccccc1 [Calpeptin]")
"inactive"
>>> qualitative_label("CC1(C)CC[C@]2(NC(=O)C(C)(F)F)CC[C@]3(C)[C@H](C(=O)C=C4[C@@]5(C)C=C(C#N)C(=O)C(C)(C)[C@@H]5CC[C@]43C)[C@@H]2C1 [Omaveloxolone]")
"active"
>>> qualitative_label("CCS(=O)(=O)N1CCN(c2ccc(Nc3ncc(C(N)=O)c(NC4CC4)n3)cc2)CC1 [Cerdulatinib]")
"inactive"

Returns: the outcome recorded for `Cn1cc(-c2ccc3c(c2)CCN3C(=O)Cc2cccc(C(F)(F)F)c2)c2c(N)ncnc21` in this assay.
inactive

# fetch the recorded call for COc1cc(C(=O)O)ccc1NC(=O)[C@@H]1N[C@@H](CC(C)(C)C)[C@](C#N)(c2ccc(Cl)cc2F)[C@H]1c1cccc(Cl)c1F [Idasanutlin] here
inactive

Record lookup: outcome of this test for `Cc1cccc(CC(=O)N2CCc3c2ccc(-c2cn(C)c4ncnc(N)c24)c3F)n1` ?
inactive

Hello, I am checking results. What call was entered for CNC(=O)c1ccc(Nc2ncc(C(F)(F)F)c(NCc3nccnc3N(C)S(C)(=O)=O)n2)cc1 [Defactinib] ?
inactive

---

test system: Kasumi-1; experiment: CellTox Green cytotoxicity fluorescence relative to DMSO vehicle (fold of vehicle RFU); higher = more cell death (loss of membrane integrity), active = 2 or more; conditions: 1 µM; 72 h
Can you answer with just one of these options? 1 (active), 0 (inactive)

These recorded examples may help you get a feel for the data.
>>> qualitative_label("CCCCCCCCCCCC1=C(O)C(=O)C=C(O)C1=O")
0
>>> qualitative_label("O=C1NC(=NCc2cccs2)S/C1=C\\c1ccc2ncccc2c1")
0
>>> qualitative_label("COCC[n+]1c2c(n(Cc3cnccn3)c1C)C(=O)c1ccccc1C2=O [Sepantronium Bromide]")
1
>>> qualitative_label("C=CC(=O)N1CC(=Cc2ccc([N+](=O)[O-])cc2)C(=O)C(=Cc2ccc([N+](=O)[O-])cc2)C1")
0
>>> qualitative_label("CCCC[C@@H](C=O)NC(=O)[C@H](CC(C)C)NC(=O)OCc1ccccc1")
0
>>> qualitative_label("C=CCc1cccc(/C=N/NC(=O)CN2CCN(Cc3ccccc3)CC2)c1O")
0
>>> qualitative_label("CC(C)CC(NC(=O)C(Cc1ccccc1)CC(O)C(Cc1ccccc1)NC(=O)OC(C)(C)C)C(=O)NC(Cc1ccccc1)C(N)=O (configuration not stated)")
0
>>> qualitative_label("CC[C@@]1(O)C(=O)OCc2c1cc1n(c2=O)Cc2cc3cc(O)ccc3nc2-1 [(S)-10-Hydroxycamptothecin]")
0

Hi team, can someone confirm the assay call for `CCC(CC)n1ccc2c(C(=O)NCc3c(C)cc(C)[nH]c3=O)cc(C#N)cc21` ?
0

Please indicate how the test categorized `CC[C@H](NC(=O)[C@H](C)NC)C(=O)N1C[C@@H](O)C[C@H]1Cc1c(-c2[nH]c3cc(F)ccc3c2C[C@@H]2C[C@H](O)CN2C(=O)[C@H](CC)NC(=O)[C@H](C)NC)[nH]c2cc(F)ccc12` .
0

Identify the outcome logged in this assay for the compound shown: Cc1nc(Nc2ncc(C(=O)Nc3c(C)cccc3Cl)s2)cc(N2CCN(CCO)CC2)n1 [Dasatinib Monohydrate]
0

---

Each entry below carries its recorded CellTox Green cytotoxicity fluorescence.
test system: Kasumi-1; assay: CellTox Green cytotoxicity fluorescence relative to DMSO vehicle (fold of vehicle RFU); higher = more cell death (loss of membrane integrity), active = 2 or more; details: 0.1 µM; 24 h
No unit in the answer, please; the number alone is enough.

Tell me its CellTox Green cytotoxicity fluorescence given `CC(C)c1cc2c(N3CCN(C4=NCC(C)(C)S4)CC3)ncnc2s1` as the entry.
0.987

Provide only the value of recorded CellTox Green cytotoxicity fluorescence for `COc1ccc(CCNCc2ccc(OCc3ccc(Cl)nc3)c(OC)c2)cc1OC`
0.953

Answer with reported CellTox Green cytotoxicity fluorescence of `CN(C)CCCCC(=O)Nc1ccc(NC(=S)NC(=O)c2ccc(C(C)(C)C)cc2)cc1`
0.947

Tell me measured CellTox Green cytotoxicity fluorescence for Nc1cccc2c1C(=O)N(C1CCC(=O)NC1=O)C2=O (stereo not given) [Pomalidomide] please.
1.01

State, in one line, measured CellTox Green cytotoxicity fluorescence of `CNC(=O)c1ccccc1Nc1cc(Nc2ccc(N3CCOCC3)cc2OC)ncc1C(F)(F)F`
0.976

Give the reported CellTox Green cytotoxicity fluorescence for this compound. `COc1nc(OCc2cccc(-c3ccccc3)c2C)ccc1CNCCNC(C)=O`
0.997

Answer with reported CellTox Green cytotoxicity fluorescence of CC(C)CC(NC(=O)C(Cc1ccccc1)CC(O)C(Cc1ccccc1)NC(=O)OC(C)(C)C)C(=O)NC(Cc1ccccc1)C(N)=O (stereo not given)
0.943

Name the recorded CellTox Green cytotoxicity fluorescence of the item `C[C@H]1Oc2cc(cnc2N)-c2c(nn(C)c2C#N)CN(C)C(=O)c2ccc(F)cc21` in your answer.
1.01

// Input: `N#CC(=Cc1ccc(-c2cc(Cl)ccc2Cl)o1)C(=O)Nc1cccc2ncccc12` . Output its CellTox Green cytotoxicity fluorescence only.
0.998

Retrieve CellTox Green cytotoxicity fluorescence measured for `O=C(NS(=O)(=O)c1ccc(Br)s1)c1ccc(Cl)cc1Cl` and print it.
1.01

---

test system: MV4-11; test: CellTox Green cytotoxicity fluorescence relative to DMSO vehicle (fold of vehicle RFU); higher = more cell death (loss of membrane integrity), active = 2 or more; settings: 0.01 µM; 72 h
Parameter: CellTox Green cytotoxicity fluorescence
Output: the number by itself.

Examples from the recorded data:
>>> numeric_readout("NS(=O)(=O)C#Cc1ccccc1")
1
>>> numeric_readout("O=C1CCC(N2C(=O)c3ccccc3C2=O)C(=O)N1 (stereo not drawn) [Thalidomide]")
0.973
>>> numeric_readout("C=CC(=O)N1CCC(Oc2cc3c(Nc4ccc(Cl)c(Cl)c4F)ncnc3cc2OC)CC1")
0.988
>>> numeric_readout("CC(C)c1cc2c(N3CCN(C4=NCC(C)(C)S4)CC3)ncnc2s1")
0.927

Could you please provide reported CellTox Green cytotoxicity fluorescence for `O=C1C(=O)N(Cc2ccc(Cl)c(Cl)c2)c2ccccc21` ? Thanks!
0.98

Please report CellTox Green cytotoxicity fluorescence for the following molecule: CC[C@@]1(O)C(=O)OCc2c1cc1n(c2=O)Cc2cc3cc(O)ccc3nc2-1 [(S)-10-Hydroxycamptothecin]
1.89

Specify CellTox Green cytotoxicity fluorescence for `CCCCCCCCCCCC1=C(O)C(=O)C=C(O)C1=O` and stop.
1

Return the recorded CellTox Green cytotoxicity fluorescence value; entry: `CC(C)[C@H](CO)Nc1nc(Nc2cccc(Cl)c2)c2ncn(C(C)C)c2n1`
1.03

Write down CellTox Green cytotoxicity fluorescence measured for item CCOC(=O)C1=C(N)Oc2ccc(Br)cc2C1C(C#N)C(=O)OCC (stereo not drawn)
1.01

Consider the molecule `Cc1nn(C)c(COc2ccc(N3CCN(S(=O)(=O)N(C)C)CC3)cc2)c1-c1cccc2c(CCCOc3cccc4ccccc34)c(C(=O)O)n(CCN3CCOCC3)c12` . State its measured CellTox Green cytotoxicity fluorescence.
0.981

Return reported CellTox Green cytotoxicity fluorescence. Input molecule: Cc1nc(Nc2ncc(C(=O)Nc3c(C)cccc3Cl)s2)cc(N2CCN(CCO)CC2)n1 [Dasatinib Monohydrate]
0.978

Query CellTox Green cytotoxicity fluorescence for O=C(COc1ccc(Cl)cc1)NC1CCC(NC(=O)COc2ccc(Cl)cc2)CC1 (stereo not drawn)
0.983

Consider the molecule CCCCC(C=O)NC(=O)C(CC(C)C)NC(=O)C(CC(C)C)NC(C)=O (stereo not drawn) . State its measured CellTox Green cytotoxicity fluorescence.
1.01

Input `O=C1NC(=NCc2cccs2)S/C1=C\c1ccc2ncccc2c1` , output reported CellTox Green cytotoxicity fluorescence.
0.981

In one line, give reported CellTox Green cytotoxicity fluorescence of the entry `CN1CCN(CCCNc2ncc(Cl)c(-c3cc4c(C(=O)NC5CC5)cccc4s3)n2)CC1` .
0.987

Specify reported CellTox Green cytotoxicity fluorescence for the molecule shown: `CN1CCN(Cc2ccc(Nc3ncc(Cl)c(Nc4ccccc4S(=O)(=O)N(C)C)n3)cc2)CC1`
0.975

Assign CellTox Green cytotoxicity fluorescence to the following record: `Nc1ccccc1NC(=O)c1cnccn1`
0.937

Tell me measured CellTox Green cytotoxicity fluorescence for C=CC(=O)N1CCN(C(=O)CNc2cc(I)c(Cl)cc2O)CC1 [K-Ras(G12C) inhibitor 12] please.
0.971

Supply recorded CellTox Green cytotoxicity fluorescence for `CN[C@@H](C)C(=O)N[C@H](C(=O)N1CCC[C@H]1c1nc(C(=O)c2ccc(F)cc2)cs1)C1CCCCC1` here.
0.977

Report CellTox Green cytotoxicity fluorescence for `CC1(C)CCC(c2ccc(Cl)cc2)=C(CN2CCN(c3ccc(C(=O)NS(=O)(=O)c4ccc(N[C@H](CCN5CCOCC5)CSc5ccccc5)c(S(=O)(=O)C(F)(F)F)c4)cc3)CC2)C1`
1.07

Report CellTox Green cytotoxicity fluorescence for `CC1(C)CC[C@]2(NC(=O)C(C)(F)F)CC[C@]3(C)[C@H](C(=O)C=C4[C@@]5(C)C=C(C#N)C(=O)C(C)(C)[C@@H]5CC[C@]43C)[C@@H]2C1`
0.966

Look up and state reported CellTox Green cytotoxicity fluorescence for `CC(C)c1ccccc1Cc1cc(C(=O)Nc2ccc(S(=O)(=O)c3ccccc3C(C)(C)C)cc2)c(O)c(O)c1O`
0.957
